Recorded koff values for a group of binders are listed next.
# study system: T1, recombinant human B7-H3 (2Ig) protein, with His tag (human, UniProt Q5ZPR3-2 29-245, limits assumed)
# T1 construct: Bought protein; also called human B7-H3/CD276 protein
# T1 sequence (looked up): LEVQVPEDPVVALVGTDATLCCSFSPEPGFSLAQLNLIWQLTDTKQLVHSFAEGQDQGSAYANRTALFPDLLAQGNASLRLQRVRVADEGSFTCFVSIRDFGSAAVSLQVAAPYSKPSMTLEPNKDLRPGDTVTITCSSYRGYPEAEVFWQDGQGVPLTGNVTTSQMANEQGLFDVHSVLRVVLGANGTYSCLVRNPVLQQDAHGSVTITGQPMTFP
# protocol description: SPR (Biacore T200), antibody captured on Protein A chip, His-tagged antigen injected
quantity measured: koff (s⁻¹)

Enoblituzumab (antibody, human IgG1, kappa, V domains shown, Humanized anti-B7-H3 antibody of MacroGenics with optimised Fc, used as the positive control; also called AbEno; enoblituzumab-IgG1-Mut) VH: EVQLVESGGGLVQPGGSLRLSCAASGFTFSSFGMHWVRQAPGKGLEWVAYISSDSSAIYYADTVKGRFTISRDNAKNSLYLQMNSLRDEDTAVYYCGRGRENIYYGSRLDYWGQGTTVTVSS VL: DIQLTQSPSFLSASVGDRVTITCKASQNVDTNVAWYQQKPGKAPKALIYSASYRYSGVPSRFSGSGSGTDFTLTISSLQPEDFATYYCQQYNNYPFTFGQGTKLEIKR
0.0203
10D7 (antibody, human IgG1, kappa, V domains shown, also called 10D7-WT; Ab10D7) VH: QVQLVQSGPGLVKPSETLSLTCTVSGGSISRSSYYWGWIRQPPGKGLEWIGNIFYAGSTYYNPSLKSRVTISVDTSKNQFSLKLSSVTAADTAVYYCARRITGTTGWFDPWGQGTLVTVSS VL: DIQLTQSPSSLSASVGDRVTITCRASQGIRNDLGWYQQKPGKAPKLLIYAASTLQSGVPSRFSGSGSGTDFTLTISSLQPEDFATYYCLQDYNYPRTFGQGTKVEIKR
0.0588
10F5 (antibody, human IgG1, kappa, V domains shown, also called Ab10F5) VH: QVQLVQSGAEVKKPGSSVKVSCKASGGTFSSQAISWVRQAPGQGLEWMGRIIPMLGIGDYAQSFQGRVTITADKSTSTAYLEVSSLGSEDTAVYYCAREGIAALGTNYYYGMDVWGQGTAVTVSS VL: EIVMTQSPSSVSASVGDRVTITCRASQGISRWLAWYQQKPGKAPKLLIYVASSLQSGVPSRFSGSGSGTDFTLTISSLQPEDFATYYCQQANSFPFTFGPGTKVDIRR
0.000422
6B5 (antibody, human IgG1, kappa, V domains shown, also called 6B5-WT; Ab6B5) VH: QVQLVESGPGLVKPSQTLSLTCTVSDGSISSGGYYWSWIRQHPGKGLEWIGYIYYSGGTYYSPSLKSRVTISVDTSKNQFSLKLTSVTAADTAVYYCARRAGYSSSFDSWGQGILVTVSS VL: EIVLTQSPLSLPVTPGEPASISCRSSQSLLYSNGYTYLDWYLQKPGQSPQFLIYLGFNRASGVPDRFSGSGSGTDFTLKISRVEAEDVGVYYCMQGLQTPYTFGQGTKLEIKR
0.00653
